Tested on: 276233-004-R-J1-PDC KRAS spheroids with HUVEC/MSC, viability
measurement_description: Anticancer human tumor 276233-004-R-J1-PDC patient-derived colon adenocarcinoma cell line growth inhibition [KRAS2]
assay_conditions: curve of first compound; second compound 0.1 µM
reported_property: IC50

CCNC(=O)CC1N=C(c2ccc(Cl)cc2)c2cc(OC)ccc2-n2c(C)nnc21 (stereo not drawn) + C=CC(=O)N1CCN(c2nc(OCC3CCCN3C)nc3c2CCN(c2cccc4cccc(C)c24)C3)CC1CC#N has a reported IC50 of > 10 µM

get_value(item= CN(C)C/C=C/C(=O)Nc1cc2c(Nc3ccc(F)c(Cl)c3)ncnc2cc1O[C@H]1CCOC1 + CNCc1ccccc1-c1csc(C(C)Nc2nc(C)nc3cc(OC)c(OC)cc23)c1 , readout=IC50) returns > 0.1 µM

So for CC1(C)CCC(CN2CCN(c3ccc(C(=O)NS(=O)(=O)c4ccc(NCC5CCOCC5)c([N+](=O)[O-])c4)c(Oc4cnc5[nH]ccc5c4)c3)CC2)=C(c2ccc(Cl)cc2)C1 + CC1OCC2(CCN(c3cnc(Sc4ccnc(N)c4Cl)c(N)n3)CC2)C1N , the logged IC50 turned out to be > 10 µM

Noted for CC1(C)CCC(CN2CCN(c3ccc(C(=O)NS(=O)(=O)c4ccc(NCC5CCOCC5)c([N+](=O)[O-])c4)c(Oc4cnc5[nH]ccc5c4)c3)CC2)=C(c2ccc(Cl)cc2)C1 + CNCc1ccccc1-c1csc(C(C)Nc2nc(C)nc3cc(OC)c(OC)cc23)c1 : its IC50 reads > 10 µM

IC50 reading for CC(=O)OC12COC1CC(O)C1(C)C(=O)C(O)C3=C(C)C(OC(=O)C(O)C(NC(=O)OC(C)(C)C)c4ccccc4)CC(O)(C(OC(=O)c4ccccc4)C21)C3(C)C (stereo not drawn) + CC1OCC2(CCN(c3cnc(Sc4ccnc(N)c4Cl)c(N)n3)CC2)C1N : > 3.16 µM

Record CCN1CCN(Cc2ccc(Nc3ncc(F)c(-c4cc(F)c5nc(C)n(C(C)C)c5c4)n3)nc2)CC1 + CNCc1ccccc1-c1csc(C(C)Nc2nc(C)nc3cc(OC)c(OC)cc23)c1 . Reported IC50: > 1 µM

Entry O=C(c1cc(Cc2n[nH]c(=O)c3ccccc23)ccc1F)N1CCN(C(=O)C2CC2)CC1 + C=CC(=O)N1CCN(c2nc(OCC3CCCN3C)nc3c2CCN(c2cccc4cccc(C)c24)C3)CC1CC#N — recorded IC50 = > 10 µM

Query CC1OCC2(CCN(c3cnc(Sc4ccnc(N)c4Cl)c(N)n3)CC2)C1N (stereo not drawn) + COc1cc2nc(C)nc(NC(C)c3cc(N)cc(C(F)(F)F)c3)c2cc1OC1CCOC1 yields IC50 of > 10 µM

Sure, the documented IC50 for CC1COCCN1c1cc(-c2ccnn2C)c2ccnc(-c3ccn[nH]3)c2n1 (stereo not drawn) + C=CC(=O)N1CCN(c2nc(OCC3CCCN3C)nc3c2CCN(c2cccc4cccc(C)c24)C3)CC1CC#N is > 3.16 µM

The value of IC50 measured for the molecule CC(C)n1nc(-c2ccc3oc(N)nc3c2)c2c(N)ncnc21 + C=CC(=O)N1CCN(c2nc(=O)n(-c3c(C)ccnc3C(C)C)c3nc(-c4c(O)cccc4F)c(F)cc23)C(C)C1 turned out to be > 0.1 µM

Data point: CC(=O)Nc1cccc(-n2c(=O)n(C3CC3)c(=O)c3c(Nc4ccc(I)cc4F)n(C)c(=O)c(C)c32)c1 + CNCc1ccccc1-c1csc(C(C)Nc2nc(C)nc3cc(OC)c(OC)cc23)c1 ; IC50 = 0.00593 µM

The value of IC50 measured for the molecule O=C(c1cc(Cc2n[nH]c(=O)c3ccccc23)ccc1F)N1CCN(C(=O)C2CC2)CC1 + CC1OCC2(CCN(c3cnc(Sc4ccnc(N)c4Cl)c(N)n3)CC2)C1N turned out to be > 10 µM

Record CC(=O)OC12COC1CC(O)C1(C)C(=O)C(O)C3=C(C)C(OC(=O)C(O)C(NC(=O)OC(C)(C)C)c4ccccc4)CC(O)(C(OC(=O)c4ccccc4)C21)C3(C)C (stereo not drawn) + C=CC(=O)N1CCN(c2nc(=O)n(-c3c(C)ccnc3C(C)C)c3nc(-c4c(O)cccc4F)c(F)cc23)C(C)C1 . Reported IC50: > 3.16 µM

Lab note: measured IC50 of CCN1CCN(Cc2ccc(Nc3ncc(F)c(-c4cc(F)c5nc(C)n(C(C)C)c5c4)n3)nc2)CC1 + C=CC(=O)N1CCN(c2nc(OCC3CCCN3C)nc3c2CCN(c2cccc4cccc(C)c24)C3)CC1CC#N was > 1 µM

GET /value?item= COc1cc(Nc2ncc3c(n2)-c2ccc(Cl)cc2C(c2c(F)cccc2OC)=NC3)ccc1C(=O)O + CNCc1ccccc1-c1csc(C(C)Nc2nc(C)nc3cc(OC)c(OC)cc23)c1 &field=IC50 returns > 10 µM

// sample COc1cc(Nc2ncc3c(n2)-c2ccc(Cl)cc2C(c2c(F)cccc2OC)=NC3)ccc1C(=O)O + C=CC(=O)N1CCN(c2nc(OCC3CCCN3C)nc3c2CCN(c2cccc4cccc(C)c24)C3)CC1CC#N , its IC50 was > 10 µM

Looking up COC(=O)c1ccc2c(C(=Nc3ccc(N(C)C(=O)CN4CCN(C)CC4)cc3)c3ccccc3)c(O)[nH]c2c1 + CNCc1ccccc1-c1csc(C(C)Nc2nc(C)nc3cc(OC)c(OC)cc23)c1 , I see its IC50 listed as > 10 µM

The molecule COc1cc(Nc2ncc3c(n2)-c2ccc(Cl)cc2C(c2c(F)cccc2OC)=NC3)ccc1C(=O)O + COc1cc2nc(C)nc(NC(C)c3cc(N)cc(C(F)(F)F)c3)c2cc1OC1CCOC1 showed IC50 equal to > 10 µM

###

Assignment: determine reported viability, T/C for the given molecules.
System: 276233-004-R-J1-PDC KRAS spheroids with HUVEC/MSC, viability
measurement_description: Anticancer human tumor 276233-004-R-J1-PDC cell line growth inhibition [KRAS2];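 note: cells exposed to agents for seven days before viability read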;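 for viability, T/C: 100% = DMSO vehicle control wells and lower values mean fewer viable cells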
assay_conditions: second compound 3.16 µM; first compound 0.1 µM; stronger effect = lower value
Report as a plain number; the unit % is understood.

With 276233-004-R-J1-PDC KRAS spheroids with HUVEC/MSC, viability as the test system, CC1(C)CCC(CN2CCN(c3ccc(C(=O)NS(=O)(=O)c4ccc(NCC5CCOCC5)c([N+](=O)[O-])c4)c(Oc4cnc5[nH]ccc5c4)c3)CC2)=C(c2ccc(Cl)cc2)C1 + CC1OCC2(CCN(c3cnc(Sc4ccnc(N)c4Cl)c(N)n3)CC2)C1N showed viability, T/C of 62.6

Log: 276233-004-R-J1-PDC KRAS spheroids with HUVEC/MSC, viability, molecule COC(=O)c1ccc2c(C(=Nc3ccc(N(C)C(=O)CN4CCN(C)CC4)cc3)c3ccccc3)c(O)[nH]c2c1 + CC1OCC2(CCN(c3cnc(Sc4ccnc(N)c4Cl)c(N)n3)CC2)C1N , viability, T/C = 47.6

# viability, T/C measured on 276233-004-R-J1-PDC KRAS spheroids with HUVEC/MSC, viability for item CCN1CCN(Cc2ccc(Nc3ncc(F)c(-c4cc(F)c5nc(C)n(C(C)C)c5c4)n3)nc2)CC1 + C=CC(=O)N1CCN(c2nc(=O)n(-c3c(C)ccnc3C(C)C)c3nc(-c4c(O)cccc4F)c(F)cc23)C(C)C1 = 80.2

With 276233-004-R-J1-PDC KRAS spheroids with HUVEC/MSC, viability as the test system, CC1(C)CCC(CN2CCN(c3ccc(C(=O)NS(=O)(=O)c4ccc(NCC5CCOCC5)c([N+](=O)[O-])c4)c(Oc4cnc5[nH]ccc5c4)c3)CC2)=C(c2ccc(Cl)cc2)C1 + C=CC(=O)N1CCN(c2nc(OCC3CCCN3C)nc3c2CCN(c2cccc4cccc(C)c24)C3)CC1CC#N showed viability, T/C of 42.6

###

System: 276233-004-R-J1-PDC KRAS spheroids with HUVEC/MSC, viability
measurement_description: Anticancer human tumor 276233-004-R-J1-PDC cell line growth inhibition [KRAS2];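 note: cells exposed to agents for seven days before viability read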;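 for viability, T/C: 100% = DMSO vehicle control wells and lower values mean fewer viable cells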
assay_conditions: second compound 10 µM; first compound 10 µM; stronger effect = lower value
reported_property: viability, T/C (%)
Provide only the numeric value, understood in %.

GET /value?item= Cn1nccc1Nc1nccc(-c2cc3c(s2)C(C)(C)N(CCN2CCOCC2)C3=O)n1 + C=CC(=O)N1CCN(c2nc(=O)n(-c3c(C)ccnc3C(C)C)c3nc(-c4c(O)cccc4F)c(F)cc23)C(C)C1 &field=viability, T/C returns 105

Form field viability, T/C, entry CC1(C)CCC(CN2CCN(c3ccc(C(=O)NS(=O)(=O)c4ccc(NCC5CCOCC5)c([N+](=O)[O-])c4)c(Oc4cnc5[nH]ccc5c4)c3)CC2)=C(c2ccc(Cl)cc2)C1 + CC1OCC2(CCN(c3cnc(Sc4ccnc(N)c4Cl)c(N)n3)CC2)C1N : 14.4

Entry COc1cc2nccc(Oc3ccc(NC(=O)C4(C(=O)Nc5ccc(F)cc5)CC4)cc3)c2cc1OC + CNCc1ccccc1-c1csc(C(C)Nc2nc(C)nc3cc(OC)c(OC)cc23)c1 ; viability, T/C = 1.46

Per the records, this compound ( COC(=O)c1ccc2c(C(=Nc3ccc(N(C)C(=O)CN4CCN(C)CC4)cc3)c3ccccc3)c(O)[nH]c2c1 + C=CC(=O)N1CCN(c2nc(=O)n(-c3c(C)ccnc3C(C)C)c3nc(-c4c(O)cccc4F)c(F)cc23)C(C)C1 ) has viability, T/C equal to 16.8

# compound CC1OCC2(CCN(c3cnc(Sc4ccnc(N)c4Cl)c(N)n3)CC2)C1N (stereo not given) + COc1cc2nc(C)nc(NC(C)c3cc(N)cc(C(F)(F)F)c3)c2cc1OC1CCOC1 ; its viability, T/C = 18.7
